# System: eotaxin-3 release
# protocol_notes: Human whole blood eotaxin-3 assay (IL-4 stimulated)
# Assay type: cell-based
# particulars: human whole blood, IL-4 0.4 nM, 48 hours; geometric mean; given for compounds with >80% Emax; read-out: Eotaxin-3 EC50
pEC50: −log10 of the molar value.
# pEC50 >= 8 gives condition met, anything below gives condition not met

# example entries with known answers
C[C@@H](c1cc2c(-c3ccc(N)nc3)ccnc2n1C)N1CCC(c2ccc(C(=O)N3CCC(CN4CCN(Cc5ccc6c(c5)n(CCO)c(=O)n6C5CCC(=O)NC5=O)CC4)CC3)cc2)CC1 (stereo partly drawn)	condition not met
CNc1ccc(-c2ccnc3c2cc([C@H](C)N2CC=C(c4c(C)cc(C(=O)N(C)c5ccc(C6CCN(Cc7ccc8c(c7)C7(CC7)C(=O)N8C7CCC(=O)NC7=O)CC6)cc5)cc4F)CC2)n3C)cn1 (stereo partly drawn)	condition met

Request: Has CNc1ccc(-c2ccnc3c2cc(CN2CC=C(c4c(F)cc(C(=O)N5CCC(CN6CCN(Cc7ccc8c(c7)C7(CC7)C(=O)N8C7CCC(=O)NC7=O)C[C@@H]6C)CC5)cc4F)CC2)n3C)cn1 (stereo partly drawn) a recorded pEC50 greater than or equal to 8?
Response: condition not met

Request: Has CNc1ccc(-c2ccnc3c2cc([C@H](C)N2CC=C(c4c(C)cc(C(=O)N5CCC(CN6CCN(Cc7ccc8c(c7)C7(CC7)C(=O)N8C7CCC(=O)NC7=O)C[C@@H]6C)CC5)cc4F)CC2)n3C)cn1 (stereo partly drawn) a recorded pEC50 greater than or equal to 8?
Response: condition met

Request: Has C[C@@H](c1cc2c(-c3ccc(N)nc3)ccnc2n1C)N1CCC(c2ccc(C(=O)N3CCC(CN4CCN(Cc5ccc6c(c5)n(C)c(=O)n6C5CCC(=O)NC5=O)C[C@@H]4C(F)(F)F)CC3)cc2)CC1 (stereo partly drawn) a recorded pEC50 greater than or equal to 8?
Response: condition met

====

Listed below: DC50 values for each entry.
# assayed_system: STAT6 (Homo sapiens (Human), UniProt P42226)
# Sequence (P42226 whole entry): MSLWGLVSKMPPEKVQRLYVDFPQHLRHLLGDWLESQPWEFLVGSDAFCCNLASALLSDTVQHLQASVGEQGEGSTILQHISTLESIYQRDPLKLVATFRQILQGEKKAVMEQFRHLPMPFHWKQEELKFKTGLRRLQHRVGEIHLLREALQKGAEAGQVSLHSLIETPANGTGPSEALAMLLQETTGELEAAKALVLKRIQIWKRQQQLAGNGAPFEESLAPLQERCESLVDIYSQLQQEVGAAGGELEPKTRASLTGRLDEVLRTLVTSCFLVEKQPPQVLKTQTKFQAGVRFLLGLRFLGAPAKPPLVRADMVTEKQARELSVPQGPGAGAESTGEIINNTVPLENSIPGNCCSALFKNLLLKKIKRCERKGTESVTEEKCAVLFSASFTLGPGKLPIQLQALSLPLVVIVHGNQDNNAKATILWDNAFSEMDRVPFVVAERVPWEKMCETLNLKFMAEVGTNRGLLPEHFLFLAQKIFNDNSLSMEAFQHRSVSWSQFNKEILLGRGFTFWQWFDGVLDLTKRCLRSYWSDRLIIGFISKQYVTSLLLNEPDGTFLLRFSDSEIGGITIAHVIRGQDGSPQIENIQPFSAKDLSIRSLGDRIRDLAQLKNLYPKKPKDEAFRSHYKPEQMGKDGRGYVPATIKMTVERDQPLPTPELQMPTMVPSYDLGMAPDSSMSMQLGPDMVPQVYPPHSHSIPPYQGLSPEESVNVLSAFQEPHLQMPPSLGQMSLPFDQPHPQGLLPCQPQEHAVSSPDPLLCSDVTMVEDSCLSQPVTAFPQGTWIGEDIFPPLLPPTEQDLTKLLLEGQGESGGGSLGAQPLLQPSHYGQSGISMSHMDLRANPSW
# protocol_notes: STAT6 degrader assay (HiBiT, HeLa LgBiT clone 4.14)
# Format: cell-based
# particulars: HeLa LgBiT clone 4.14, 4-24 h; geometric mean; given for compounds with >80% Emax; read-out: STAT6 degradation DC50
# Experimental: This was a HiBit based assay. A HeLa cell line stably transfected with a small protein, LgBit (Large Bit) was obtained from Promega. These cells express endogenous STAT6. […] Single cell clones were prepared and the clone 4.14 was selected for the assay based on that clone showing high luminescence, high STAT6 phosphorylation upon stimulation with IL-4, and inhibition of luminescence when cells were treated with STAT6 siRNA. […]
Lab book: enter the figure in nM, no units written.

Observe how each entry below is paired with its result.
C[C@H]1CN(Cc2ccc3c(c2)n(C)c(=O)n3C2CCC(=O)NC2=O)CCN1CC1CCN(C(=O)c2ccc(C3CCN([C@@H](C)c4cc5c(-c6ccc(N)nc6C#N)ccnc5n4C)CC3)cc2)CC1 (stereo partly drawn)	0.5
Cn1c(CN2CCC(c3ccc(C(=O)N4CCC(CN5CCN(Cc6ccc7c(c6F)n(C)c(=O)n7C6CCC(=O)NC6=O)CC5)CC4)cc3)CC2)cc2c(-c3ccc(N)nc3)ccnc21 (stereo not drawn)	1.5
C[C@@H](c1cc2c(-c3ccc(N)nc3)ccnc2n1C)N1CCC(c2ccc(C(=O)N3CCC(CN4CCN(Cc5cc6c(cc5F)n(C5CCC(=O)NC5=O)c(=O)n6C5CC5)CC4)CC3)cc2)CC1 (stereo partly drawn)	3.2
COCc1nc2cc(-c3ccnc4c3cc(CN3CCC(c5ccc(C(=O)N(C)c6ccc(C7CCN(Cc8ccc9c(c8)oc(=O)n9C8CCC(=O)NC8=O)CC7)cc6)cc5)CC3)n4C)ccc2[nH]1 (stereo not drawn)	0.1
CC[C@H]1CN(Cc2ccc3c(c2)n(C2CC2)c(=O)n3[C@H]2CCC(=O)NC2=O)CCN1CC1CCN(C(=O)c2ccc(C3CCN([C@@H](C)c4cc5c(-c6ccc(N)nc6)ccnc5n4C)CC3)cc2)CC1 (single isomer, unassigned)	2.6
Cn1c(CN2CCC(c3ccc(C(=O)N4CCC(CN5CCN(Cc6ccc7c(c6)n(C)c(=O)n7C6CCC(=O)NC6=O)CC5)CC4)cc3)CC2)cc2c(-c3ccc4[nH]ncc4c3)ccnc21 (stereo not drawn)	0.6

Request: Name the recorded DC50 of the compound listed here: C[C@H]1CN(Cc2ccc3c(c2)n(C)c(=O)n3[C@@H]2CCC(=O)NC2=O)CCN1CC1CCN(C(=O)c2ccc(C3CCN([C@@H](C)c4cc5c(-c6ccc(N)nc6)ccnc5n4C)CC3)cc2)CC1 (single isomer, unassigned)
Response: 0.3

Request: Name the recorded DC50 of the compound listed here: C[C@H]1CN(Cc2ccc3c(c2)n(C)c(=O)n3C2CCC(=O)NC2=O)CCN1CC1CCN(C(=O)c2ccc(C3CCN(Cc4cc5c(-c6ccc(N)nc6)ccnc5n4C)CC3)cc2)CC1 (stereo partly drawn)
Response: 0.75

Request: Name the recorded DC50 of the compound listed here: C[C@H]1CN(Cc2ccc3c(c2)n(CC2CC2)c(=O)n3C2CCC(=O)NC2=O)CCN1CC1CCN(C(=O)c2ccc(C3CCN([C@@H](C)c4cc5c(-c6ccc(N)nc6)ccnc5n4C)CC3)cc2)CC1 (stereo partly drawn)
Response: 0.7

Request: Name the recorded DC50 of the compound listed here: Cc1cc(C(=O)N2CCC(CN3CCN(Cc4ccc5c(c4)n(C4CC4)c(=O)n5[C@H]4CCC(=O)NC4=O)C[C@@H]3C)CC2)cc(F)c1C1=CCN([C@@H](C)c2cc3c(-c4ccc(N)nc4)ccnc3n2C)CC1 (single isomer, unassigned)
Response: 1.6

Request: Name the recorded DC50 of the compound listed here: CNc1ccc(-c2ccnc3c2cc([C@H](C)N2CC=C(c4c(C)cc(C(=O)N5CCC(CC6CCN(c7ccc8c(c7)C7(CC7)C(=O)N8C7CCC(=O)NC7=O)CC6)CC5)cc4F)CC2)n3C)cn1 (stereo partly drawn)
Response: 28.4
